testedSystem: human VDR (Homo sapiens)
Sequence (P11473 1-427): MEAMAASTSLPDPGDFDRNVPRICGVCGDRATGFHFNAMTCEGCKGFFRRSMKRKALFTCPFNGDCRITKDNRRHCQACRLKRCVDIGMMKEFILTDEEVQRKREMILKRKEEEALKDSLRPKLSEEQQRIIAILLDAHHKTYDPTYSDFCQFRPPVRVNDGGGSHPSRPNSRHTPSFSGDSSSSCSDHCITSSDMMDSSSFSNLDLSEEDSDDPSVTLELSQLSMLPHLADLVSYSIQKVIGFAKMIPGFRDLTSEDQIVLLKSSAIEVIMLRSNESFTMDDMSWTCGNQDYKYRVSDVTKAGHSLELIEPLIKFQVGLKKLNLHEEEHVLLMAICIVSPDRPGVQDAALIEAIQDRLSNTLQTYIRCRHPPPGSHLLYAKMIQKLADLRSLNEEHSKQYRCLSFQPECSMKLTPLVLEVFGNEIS
experiment: VDR Activation (transcription activation assay in COS cells, luciferase reporter)
conditionDescription: COS cells cotransfected with human VDR and VDRE3/luciferase reporter; read-out: VDR act (ED50, nanomolar)
experimentalEndpoint: pEC50
Keep in mind that pEC50 stands for -log10 of concentration in molar terms.

# annotated cases, reported pEC50 shown
CC(C)(C/C=C/C(O)(C(F)(F)F)C(F)(F)F)CCC/C=C/C=C1C[C@@H](O)C[C@H](O)C1 | 8.24
CC(C)(O)C#CCC(C)(C)CCC/C=C/C=C1C[C@@H](O)C[C@H](O)C1 | 6.66
C=C1/C(=C\C=C\CCCC(C)(C)CCCC(C)(C)O)C[C@@H](O)C[C@@H]1O | 6.96
C=C1/C(=C\C=C\CCCC(C)(C)CC#CC(O)(C(F)(F)F)C(F)(F)F)C[C@@H](O)C[C@@H]1O | 8.32
C=C1/C(=C\C=C\CCCC(C)(C)C/C=C/C(O)(C(F)(F)F)C(F)(F)F)C[C@@H](O)C[C@@H]1O | 8.40
C=C1/C(=C\C=C\CCCC(C)(C)CCCC(O)(C(F)(F)F)C(F)(F)F)C[C@@H](O)C[C@@H]1O | 8.40
CC(C)(C/C=C\C(O)(C(F)(F)F)C(F)(F)F)CCC/C=C/C=C1C[C@@H](O)C[C@H](O)C1 | 6.74
C=C1/C(=C\C=C\CCCC(C)(C)C/C=C\C(O)(C(F)(F)F)C(F)(F)F)C[C@@H](O)C[C@@H]1O | 7.30

## Task Supply reported pEC50 belonging to this molecule: CC(C)(CC#CC(O)(C(F)(F)F)C(F)(F)F)CCC/C=C/C=C1C[C@@H](O)C[C@H](O)C1
## Result 7.89

## Task Supply reported pEC50 belonging to this molecule: CC(C)(O)CCCC(C)(C)CCC/C=C/C=C1C[C@@H](O)C[C@H](O)C1
## Result 6.55

## Task Supply reported pEC50 belonging to this molecule: CC(C)(CCC/C=C/C=C1C[C@@H](O)C[C@H](O)C1)CCCC(O)(C(F)(F)F)C(F)(F)F
## Result 8.18

* * *

experiment: The Mouse Model: epidermal thickening (acanthosis) in hairless mice
conditionDescription: mouse, in vivo, po
experimentalEndpoint: MTD (mg/kg)
Supply the numeric figure in mg/kg, leaving out any unit text.

# annotated cases, reported MTD shown
CC(C)(CCC/C=C/C=C1C[C@@H](O)C[C@H](O)C1)CCCC(O)(C(F)(F)F)C(F)(F)F | 0.04
C=C1/C(=C\C=C\CCCC(C)(C)CC#CC(O)(C(F)(F)F)C(F)(F)F)C[C@@H](O)C[C@@H]1O | 0.07
C=C1/C(=C\C=C\CCCC(C)(C)C/C=C/C(O)(C(F)(F)F)C(F)(F)F)C[C@@H](O)C[C@@H]1O | 0.06

## Task Supply reported MTD belonging to this compound: CC(C)(CC#CC(O)(C(F)(F)F)C(F)(F)F)CCC/C=C/C=C1C[C@@H](O)C[C@H](O)C1
## Result 0.1

## Task Supply reported MTD belonging to this compound: CC(C)(C/C=C/C(O)(C(F)(F)F)C(F)(F)F)CCC/C=C/C=C1C[C@@H](O)C[C@H](O)C1
## Result 0.05

* * *

experiment: Calcium Liability (Tolerance Test in Mice)
conditionDescription: mouse, in vivo, sc
The compounds listed here are annotated with their MTD.
Supply the numeric figure in mg/kg, leaving out any unit text.

# annotated cases, reported MTD shown
C=C1/C(=C\C=C\CCCC(C)(C)C/C=C\C(O)(C(F)(F)F)C(F)(F)F)C[C@@H](O)C[C@@H]1O | 3
C=C1/C(=C\C=C\CCCC(C)(C)CC#CC(O)(C(F)(F)F)C(F)(F)F)C[C@@H](O)C[C@@H]1O | 0.31

Moving on to another compound below.
## Task Supply reported MTD belonging to this compound: C=C1/C(=C\C=C\CCCC(C)(C)C/C=C/C(O)(C(F)(F)F)C(F)(F)F)C[C@@H](O)C[C@@H]1O
## Result 0.2

* * *

experiment: The Mouse Model: epidermal thickening (acanthosis) in hairless mice
conditionDescription: mouse, in vivo, po
The compounds listed here are annotated with their MTD.

C=C1/C(=C\C=C\CCCC(C)(C)CCCC(O)(C(F)(F)F)C(F)(F)F)C[C@@H](O)C[C@@H]1O | 0.08 mg/kg
CC(C)(C/C=C\C(O)(C(F)(F)F)C(F)(F)F)CCC/C=C/C=C1C[C@@H](O)C[C@H](O)C1 | 1 mg/kg

Moving on to another compound below.
## Task Supply reported MTD belonging to this compound: C=C1/C(=C\C=C\CCCC(C)(C)C/C=C\C(O)(C(F)(F)F)C(F)(F)F)C[C@@H](O)C[C@@H]1O
## Result 0.4 mg/kg
